targetSystem: Calmodulin-1 (Homo sapiens) (UniProt P0DP23)
protocol: calcium-bound CALM1 binders on microarrays, profiling panel, artefact control for SMM control-protein annotation, biochemical, small-molecule microarray, Cy5-labelled CALM1, plus calcium (AID 1112);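 further: score merges spot fluorescence with signal to noise from triplicate slides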
conditionDetails: Cy5-CALM1 binding fluorescence, higher = more signal
Overview of reported composite z-score across a group of compounds:
testReadout: composite z-score

• O=C1C[C@]2(c3ccc([N+](=O)[O-])cc3)C(=O)N(CCN3CCOCC3)c3cc(CO)ccc3[C@H]2N1CC12CC3CC(CC(C3)C1)C2 = 0.305
• COC(=O)[C@@H]1CC[C@H](C)[C@@H](c2ccc(C)cc2)N1C(=O)c1ccc(C=NOC[C@@H](O)COCc2ccco2)cc1 = -1.22
• CCN1C(=O)[C@H]2[C@H]3[C@H](O)[C@H](O)CC(=NO[C@@H]4O[C@H](CO)[C@@H](O)[C@H](O)[C@H]4O)[C@@H]3CC[C@H]2C1=O = -0.813
• COC(=O)[C@H](C)NC(=O)CCC1CC(OC(=O)NCc2cccc3ccccc23)CC2(CCCC(COC(=O)NCCc3ccc(Cl)cc3)O2)O1 (some centres undefined) = -0.0789
• C#CCCCON=C1C[C@@H](O)[C@@H](O)[C@@H]2[C@@H]3C(=O)N(c4cccc(Oc5ccccc5)c4)C(=O)[C@@H]3CC[C@@H]12 = -0.285
• CN(C)C(=O)[C@@]1(Cc2ccccc2)N=C(c2ccc(OCCCO)cc2)O[C@H]1c1ccccc1CN=[N+]=[N-] = 1.26
• CCOC(=O)NN=C1C[C@@H](O)[C@@H](O)[C@@H]2[C@@H]3C(=O)N(C4CCCCC4)C(=O)[C@@H]3CC[C@H]12 = -0.469
• CC(=O)OC[C@H]1O[C@H](C#CCCCc2ccccc2)C=C[C@@H]1OC(C)=O = -0.794
• CN(C)c1ccc(C(O)C2C=CC3C(=O)N(c4ccccc4)C(=O)C3N2Nc2ccccc2F)cc1 (centres undefined) = -0.472
• C=CCC(OC(C)=O)[C@@H]1[C@@H](N(Cc2cc3ccccc3o2)C(=O)Cc2ccc(F)cc2)c2cc(OCCCO)ccc2N1C(=O)Cc1ccc(OC)cc1 (some centres undefined) = -0.435
• [N-]=[N+]=NCc1ccccc1[C@@H]1OC(c2ccc(OCCCO)cc2)=N[C@]1(Cc1ccccc1)C(=O)N1CCOCC1 = 1.05
• O=C(NN=C1C[C@@H](O)[C@@H](O)[C@@H]2[C@@H]3C(=O)N(c4ccc(F)cc4F)C(=O)[C@@H]3CC[C@@H]12)OCc1ccccc1 = -0.226
• CC(C)[C@@H](OCc1ccccc1)[C@H](C)C=NO[C@H](C)c1cn([C@H](CO)Cc2ccccc2)nn1 = -0.669
• CCOC(=O)NN=C1C[C@@H](O)[C@@H](O)[C@@H]2[C@@H]3C(=O)N(CC)C(=O)[C@@H]3CC[C@@H]12 = -0.264

---

System: XIP peptide (Xip251-270)
protocol: small-molecule binders of XIP peptide, primary screen, biochemical, small-molecule microarray, fluorescence 635/667 nm, 0.5 µg/mL protein (AID 1183)
conditionDetails: small-molecule microarray binding, fluorescence 635 nm; higher = more signal
testReadout: composite z-score

• COC(=O)[C@@H]1CC[C@H](C)[C@@H](c2ccc(C)cc2)N1C(=O)c1ccc(C=NOC(C)CN2CCCCc3nc(C)c(C)cc32)cc1 (some centres not stated) = 0.51
• CCOC(=O)NN=C1C[C@@H](O)[C@@H](O)[C@@H]2[C@@H]3C(=O)N(C(C)(C)C)C(=O)[C@@H]3CC[C@@H]12 = -0.145
• CC(C)=CCCC(C)=CCON=C1[C@H]2CCn3c(=O)n(C)c(=O)n3[C@H]2[C@H](O)[C@@H]2O[C@H]12 = 0.246
• C#C[C@@H](CC)O[Si](C#Cc1ccc(Oc2ccccc2)cc1)(C(C)C)C(C)C = -0.102
• COC(=O)[C@H](C)NC(=O)CCC1CC(OC(=O)NCCc2ccc(F)cc2)CC2(CCCC(COC(=O)NCCc3ccc(Cl)cc3)O2)O1 (some centres not stated) = 0.729
• CC(=O)OC[C@H]1O[C@@H](ON=C(C)CCN2CCc3nc(-c4ccccc4)c(-c4ccccc4)cc3C2)[C@H](OC(C)=O)[C@@H](OC(C)=O)[C@@H]1OC(C)=O = 0.71
• O=C(CS)NCCCCCNC(=O)[C@@H]1C[C@@H]2C(=O)N[C@@H](Cc3ccccc3)C(=O)N2[C@@H]1c1ccc(O)cc1 = 0.562

---

protocol: E. coli acrAB mutant growth effects, primary screen, E. coli filamentation inducers, strain DRC39, OD650, 24 h (AID 1178);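 further: growth measured as culture turbidity by optical density at 650 nm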
conditionDetails: higher = more signal, called active from +8 up or from −8 down
Overview of reported z-score across a group of compounds:
testReadout: z-score

* CC(C)(C)N1CC=CC23O[C@@H]4C=CCCOC(=O)C4[C@H]2C(=O)N(CCCCCO)[C@@H]3C1=O (stereo partly specified) | 0.251
* CCN1C(=O)[C@H]2[C@H]3[C@H](O)C=CC(=O)[C@@H]3CC[C@H]2C1=O | 0.484
* C=CC[C@@H]1C=C[C@H](ON=C(C)CCN2CCc3nc(CC)c(CC)cc3C2)[C@@H](CO)O1 | 0.0116
* O=C(NN=C1C[C@@H](O)[C@@H](O)[C@@H]2[C@@H]3C(=O)N(c4cccc(Oc5ccccc5)c4)C(=O)[C@@H]3CC[C@@H]12)OCc1ccccc1 | -0.134
* CO[C@@H]1COC(=O)CCC[C@@H](C)[C@H](OC)COC(=O)[C@H](Cc2ccccc2)NC(=O)CC=C[C@H]1C | 0.024
* CCCCCN1CC=CC23O[C@@H]4C=CCOC(=O)[C@@H]4[C@H]2C(=O)N(CCCCCCO)[C@@H]3C1=O (stereo partly specified) | 0.282
* CCCCc1nc2c(c3c1C[C@H](C)OC3)CN(CCC(C)C)CC2 | 0.56
* CCCNC(=O)OC[C@H]1O[C@H](CCON=CC[C@@H]2C=C[C@H](OC(C)=O)[C@@H](COC(C)=O)O2)C=C[C@@H]1Oc1ccc(OC)cc1 | 0.426
* CCc1cc2c(nc1CC)CCN(CCC(C)=NOC[C@@H](O)COCc1ccco1)C2 | 0.377
* COc1ccc([Si](C)(C)[C@@H]2[C@@H](CC(=O)N3CCC[C@H]3CO)O[C@]3(C(=O)N(Cc4cccc(N5CCC5=O)c4)c4ccccc43)[C@H]2C)cc1 | 0.52
* CCCCCCc1nc(CCCc2cc3c(c(CCCCCC)n2)[Si](C(C)C)(C(C)C)O[C@H]3c2ccccc2)cc2c1[Si](C(C)C)(C(C)C)O[C@H]2c1ccccc1 | -0.631
* COC(=O)[C@@H]1N=C(c2ccc(OCCCO)cc2)O[C@@H]1c1ccccc1N=[N+]=[N-] | 2.09
* CC(C)CON=C1C[C@@H](O)[C@@H](O)[C@@H]2[C@@H]3C(=O)N(C[C@@H]4CCCO4)C(=O)[C@@H]3CC[C@H]12 | -0.353
* COCC1=C2[C@@H](CCc3ccccc3)OB(O)C[C@@H]2n2c(=O)n(-c3ccccc3)c(=O)n2C1 | 0.969
* CC(C)=NOCc1cccc(-c2cc(-c3ccccc3)no2)c1 | 1.19
* COc1cccc([C@H]2Oc3ccc(OC)cc3C(=NOC(C)CN3CCCc4nc(C)c(C)cc43)[C@@H]2O)c1 (stereo partly specified) | -0.0128

---

protocol: small-molecule microarray binders of probe aCHRDL2, primary screen, biochemical, biotinylated probe, 635/667 nm fluorescence (AID 1100)
conditionDetails: higher = more signal
Overview of reported composite z-score across a group of molecules:
testReadout: composite z-score

- COc1ccc(O[C@H]2C=C[C@@H](c3ccccc3)O[C@@H]2COC(=O)CCC(C)=NOC[C@@H](C)[C@H](OCc2ccccc2)C(C)C)cc1: -0.529
- COc1cccc([C@H]2Oc3ccc(OC)cc3C(=NOC(C)CN3CCCc4nc(C)c(C)cc43)[C@@H]2O)c1 (some centres not stated): -0.335
- CC(=O)OC[C@H]1O[C@@H](ON=C[C@@H](C)[C@H](OCc2ccccc2)C(C)C)[C@H](OC(C)=O)[C@@H](OC(C)=O)[C@@H]1OC(C)=O: 0.169
- O=C(NN=C1C[C@@H](O)[C@@H](O)[C@@H]2[C@@H]3C(=O)N(c4ccc(F)cc4F)C(=O)[C@@H]3CC[C@@H]12)OCc1ccccc1: -0.232
- C=CCNC(=O)[C@H]1[C@@H]2C(=O)O[C@@H](c3ccccc3)[C@@H](c3ccccc3)N2[C@@H](c2ccc(O)cc2)[C@]12C(=O)N(C(=O)OCCOC)c1ccc(C#CC3=CCCCC3)cc12: 0.263
- COC(=O)CC=C[C@@H](C)[C@@H](C=NO[C@@H](C)c1cc(-c2c(C)cc(C)cc2C)no1)OC: 1.07
- COC(=O)[C@@]1(Cc2ccccc2)[C@H]2c3cc(C(=O)N4CCCC4)n(Cc4ccccn4)c3C[C@H]2CN1C(=O)c1ccccc1: 1.31

// data source = PubChem BioAssay
